For each entry below, report its pIC50 value.
Target: recombinant human FLAP protein (Homo sapiens, UniProt P20292)
Construct: made in house; host or cells: Sf9 insect cells (100,000×g membrane pellet used)
Sequence (P20292 1-161): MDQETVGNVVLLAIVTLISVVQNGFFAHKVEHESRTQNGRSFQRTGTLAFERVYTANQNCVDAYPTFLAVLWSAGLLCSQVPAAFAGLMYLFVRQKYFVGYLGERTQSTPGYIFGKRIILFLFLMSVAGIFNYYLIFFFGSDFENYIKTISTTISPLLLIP
Test: FLAP binding assay (SPA, displacement of [125I]L-691,831)
Details: membranes of sf9 cells expressing recombinant human FLAP; [125I]L-691,831 probe; read-out: FLAP binding IC50
Answers are plain numbers, as −log10 of the molar value.

Some molecules with known pIC50 results, for comparison:
[
  {
    "molecule": "CN(C)C(=O)Cn1cc(-c2nc(C(C)(c3ccc(-c4cnc5c(c4)OCCN5)cc3)C3CC3)no2)cn1 (stereo not shown)",
    "pIC50": 8.39
  },
  {
    "molecule": "CC(C)(c1ccc(-c2cnc(N)nc2)cc1)c1noc(-c2cn[nH]c2)n1",
    "pIC50": 8.11
  },
  {
    "molecule": "CC(c1ccc(-c2cnc(N)nc2)cc1)(c1noc(-c2cnn(C3COC3)c2)n1)C1CCC1 (stereo not shown)",
    "pIC50": 8.41
  },
  {
    "molecule": "CC(C)[C@@](C)(c1ccc(-c2cnc(N)nc2)cc1)c1noc(-c2ccnn2C)n1",
    "pIC50": 7.74
  },
  {
    "molecule": "CC(C)C(C)(c1ccc(-c2cnc(N)nc2)cc1)c1noc(N2CCN(C)C(=O)C2)n1 (stereo not shown)",
    "pIC50": 7.34
  },
  {
    "molecule": "Cn1cc(-c2nc(C(c3ccc(-c4cnc(N)nc4)cc3)C(C)(C)C)no2)cn1 (stereo not shown)",
    "pIC50": 7.96
  },
  {
    "molecule": "CC(C)C(C)(c1ccc(-c2cnc(N)nc2)cc1)c1noc(C2(C)CC2)n1 (stereo not shown)",
    "pIC50": 8.00
  },
  {
    "molecule": "CC(C)C(C)(c1ccc(-c2cnc(N)nc2)cc1)c1noc(-c2cnn(CC(=O)N(C)C)c2)n1 (stereo not shown)",
    "pIC50": 8.32
  }
]

Dear colleague, could you send me pIC50 for each of the items below? Thanks.
1. CC(C)C(C)(c1ccc(-c2cnc(N)nc2)cc1)c1noc(-c2ccccc2S(C)(=O)=O)n1 (stereo not shown)
2. Cn1cc(-c2nc(C(C)(c3ccc(-c4cnc(N)nc4)cc3)C3CC3)no2)cn1 (stereo not shown)
3. CC(c1ccc(-c2cnc(N)nc2)cc1)(c1noc(-c2ccc(NCCS(C)(=O)=O)nc2)n1)C1CC1 (stereo not shown)

1: 7.24; 2: 8.38; 3: 8.66

Dear colleague, could you send me pIC50 for each of the items below? Thanks.
1. C[C@](c1ccc(-c2cnc(N)nc2)cc1)(c1noc(-c2cnn(C3COC3)c2)n1)C1CC1
2. CC(C)C(C)(c1ccc(-c2cnc(N)nc2)cc1)c1noc(-c2cn[nH]c2)n1 (stereo not shown)
3. CC(C)C(C)(c1ccc(-c2cnc(N)nc2)cc1)c1noc(-c2ccc(C(F)(F)F)nc2)n1 (stereo not shown)
4. CC(C)C(C)(c1ccc(-c2cnc(N)nc2)cc1)c1noc(N2C3CCC2CC(O)C3)n1 (stereo not shown)
5. CC(C)C(C)(c1ccc(-c2cnc(N)nc2)cc1)c1noc(-c2ccc(C(N)=O)nc2)n1 (stereo not shown)

[7.96, 8.89, 8.27, 7.54, 8.82]
